- Assay Name: Plasma concentration in Sprague-Dawley rat at 100 mg/kg, po measured at 6 hrs
- Assay type: ADME, organism-based
- Set-up: dose 100 mg/kg, route oral
Property Label: concentration at 6 h (µg/mL)

INSERT INTO results (smiles_repr, unit_symbol, value_measured) VALUES
  ('CC[C@@H]1C(=O)N(C)c2cnc(-n3ccnc3-c3ccc(F)cc3)nc2N1c1ccn(C)n1', 'µg/mL', 6.29);

* * *

- Assay Name: Lipophilicity, log P of the compound
- Type: physicochemical
- Test Settings: octanol/water; read-out: logP
Property Label: logP

INSERT INTO assay_data (compound, value_measured) VALUES
  ('CCC1C(=O)N(C)c2cnc(-n3ccnc3-c3ccc(F)cc3)nc2N1c1ccc(C#N)cc1 (racemic)', 2.7),
  ('CC[C@@H]1C(=O)N(C)c2cnc(-n3ccnc3-c3ccc(F)cc3)nc2N1C1CC(F)(F)C1', 3),
  ('CC[C@@H]1C(=O)N(C)c2cnc(-n3ccnc3-c3ccc(F)cc3)nc2N1c1ccn(C)n1', 2.4);

* * *

- Assay Name: Metabolic stability in human liver microsomes assessed as compound remaining at 1 uM after 30 mins
- Assay type: ADME, Microsome
- Test Settings: read-out: Stability
Entries annotated with measured remaining at 0.5 h, 1 µM
Property Label: remaining at 0.5 h, 1 µM (%)

INSERT INTO measurements (compound, property_label, value_measured) VALUES
  ('CC[C@@H]1C(=O)N(C)c2cnc(-n3ccnc3-c3ccc(F)cc3)nc2N1c1cnn(C)c1', 'remaining at 0.5 h, 1 µM', 69),
  ('CC[C@@H]1C(=O)N(C)c2cnc(-n3ccnc3-c3ccccc3)nc2N1c1cncnc1', 'remaining at 0.5 h, 1 µM', 55),
  ('CC[C@@H]1C(=O)N(C)c2cnc(-n3ccnc3-c3ccc(F)cc3)nc2N1C1COC1', 'remaining at 0.5 h, 1 µM', 74),
  ('CC[C@@H]1C(=O)N(C)c2cnc(-n3ccnc3-c3ccccc3)nc2N1C(C)C', 'remaining at 0.5 h, 1 µM', 14),
  ('CC[C@@H]1C(=O)N(C)c2cnc(-n3ccnc3-c3ccccc3)nc2N1C1CCCC1', 'remaining at 0.5 h, 1 µM', 0),
  ('CCC1C(=O)N(C)c2cnc(-n3ccnc3-c3ccc(F)cc3)nc2N1c1ccc(C#N)cc1 (racemic)', 'remaining at 0.5 h, 1 µM', 63);

* * *

- Assay Name: Metabolic stability in mouse liver microsomes assessed as compound remaining at 1 uM after 30 mins
- Type: ADME, Microsome
- Test Settings: read-out: Stability
Property Label: remaining at 0.5 h, 1 µM (%)

INSERT INTO assay_data (smiles_repr, value_measured) VALUES
  ('CC[C@@H]1C(=O)N(C)c2cnc(-n3ccnc3-c3ccccc3)nc2N1[C@H]1CCOC1', 51),
  ('CC[C@@H]1C(=O)N(C)c2cnc(-n3ccnc3-c3ccc(F)cc3)nc2N1C1CC(F)(F)C1', 30),
  ('CC[C@@H]1C(=O)N(C)c2cnc(-n3ccnc3-c3ccc(F)cc3)nc2N1c1cnn(C)c1', 50);
